- Test system: Fusarium sp.
- assay-explanation: Antifungal activity against Fusarium sp. assessed as reduction in microbial growth […] by broth microdilution method
- Assay type: functional
MIC listing for selected compounds.
Report the figure in µg/mL without appending any unit label.

molecule	quantitative-readout
C[C@@H]1[C@H](O)[C@@H](C)/C=C/C=C/C=C/C=C/C=C/C=C/C=C/[C@H](O[C@@H]2O[C@H](C)[C@@H](O)[C@H](N)[C@@H]2O)C[C@@H]2O[C@](O)(C[C@@H](O)C[C@@H](O)[C@H](O)CC[C@@H](O)C[C@@H](O)CC(=O)O[C@H]1C)C[C@H](O)[C@H]2C(=O)O	12
C[C@@H](n1ncc2cc(-c3ccc(C#N)cc3)cn2c1=O)[C@](O)(Cn1cncn1)c1ccc(F)cc1F	10
C[C@@H](n1ncc2cc(-c3ccc([N+](=O)[O-])cc3)cn2c1=O)[C@](O)(Cn1cncn1)c1ccc(F)cc1F	12

Then there is this compound:
## Task // query MIC value for entry C[C@@H](c1ncncc1F)[C@](O)(Cn1cncn1)c1ccc(F)cc1F
## Result 6
